System: 425362-245-T-J1 tumor spheroids, viability % test/control;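 note: spheroids exposed to agents for 7 days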
experiment_summary: Anticancer human tumor 425362-245-T-J1 patient-derived melanoma cell line growth inhibition
condition_description: second compound 1 µM; first compound 3.16 µM; active compounds read low; spheroids with HUVEC and MSC
Rule: viability, T/C below 50% gives t, anything at or above gives f.

molecule	class_label
CC1COCCN1c1cc(-c2ccnn2C)c2ccnc(-c3ccn[nH]3)c2n1 (stereo unspecified) + Cn1nnc2c(C(N)=O)ncn2c1=O	t
Cc1cc(C)c(CNC(=O)c2cc(-c3ccc(CN4CCOCC4)cc3)cc3c2cnn3C2CCCC2)c(=O)[nH]1 + Cn1nnc2c(C(N)=O)ncn2c1=O	t

[ask] Quick check: viability, T/C of COc1cc(C)[nH]c(=O)c1CN1CCc2c(Cl)cc(C(OC)C3COC3)c(Cl)c2C1=O (stereo unspecified) + Cn1nnc2c(C(N)=O)ncn2c1=O under 50%?
[reply] f

[ask] Then this molecule: CC(C)n1c(=O)n(C)c2cnc3cc(F)c(-c4ccc(OCCCN5CCCCC5)nc4)cc3c21 + Cn1nnc2c(C(N)=O)ncn2c1=O
[reply] t

[ask] Then this molecule: [2H]c1nc(C)nc([2H])c1-c1cc(NC[C@@H](C)c2cccc3c(C(=O)NC)ccnc23)ncn1 + Cn1nnc2c(C(N)=O)ncn2c1=O
[reply] f

[ask] Then this molecule: COc1ccc([C@@H](O)c2cc(-c3ncnc4cc(N5CCOCC5)ccc34)c(F)cc2Cl)nn1 + Cn1nnc2c(C(N)=O)ncn2c1=O
[reply] t
